Numbers sourced from PubChem BioAssay (EPA / NIEHS).

# testProtocol: BSK_3C_uPAR: BioMAP Diversity Plus: 3C Assay for Urokinase-type plasminogen activator receptor (uPAR) Biomarker Activity (AID 2282998)
# measurementConditions: BioMAP 3C HUVEC, uPAR biomarker ELISA; actives raise or lower the signal
Activity calls are given as the source filed them. Rule for the calls: active = hit-call score of the fitted dose curve at least 0.9, where 1 is the maximum; inactive = score below 0.9.
Outcome codes: active, inactive

{"molecule": "COC(=O)N(OC)c1ccccc1COc1ccn(-c2ccc(Cl)cc2)n1", "labelClass": "active"}
{"molecule": "CCOC(=O)C(Cl)Cc1cc(-n2nc(C)n(C(F)F)c2=O)c(F)cc1Cl (stereo unspecified)", "labelClass": "inactive"}
{"molecule": "Fc1ccc(Oc2ccnc3cc(Cl)cc(Cl)c23)cc1", "labelClass": "active"}
{"molecule": "C=CC1(C)OC(=O)N(c2cc(Cl)cc(Cl)c2)C1=O (stereo unspecified)", "labelClass": "inactive"}
{"molecule": "COC(=O)C=C(C)OP(=O)(OC)OC", "labelClass": "inactive"}
{"molecule": "CCCC1COC(Cn2cncn2)(c2ccc(Cl)cc2Cl)O1 (stereo unspecified)", "labelClass": "inactive"}
